Each recorded value in this set is attributed to patent US9718817B2.

# Study System: GST-tagged ROR gamma ligand binding domain (LBD) (Homo sapiens, UniProt P51449)
# Construct: purchased Invitrogen
# Sequence (P51449 269-508 limits assumed): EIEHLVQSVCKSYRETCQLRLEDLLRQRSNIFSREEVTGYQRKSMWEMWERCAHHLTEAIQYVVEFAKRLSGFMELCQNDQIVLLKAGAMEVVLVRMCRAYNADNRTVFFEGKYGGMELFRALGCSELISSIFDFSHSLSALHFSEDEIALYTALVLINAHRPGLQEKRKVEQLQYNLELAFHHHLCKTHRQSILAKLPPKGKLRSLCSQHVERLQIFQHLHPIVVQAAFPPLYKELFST
# Assay Protocol: TR-FRET assay for ROR gamma (LanthaScreen co-activator peptide recruitment)
# Type: biochemical
# Run Conditions: compound 10 μM; TR-FRET ratio 520/495, percent of control

Smiles Input: CCS(=O)(=O)c1ccc(CC(=O)Nc2ccc(OC3(c4ccc(Cl)cc4)CCC3)cc2)cc1
Study System: GST-tagged ROR gamma ligand binding domain (LBD) (Homo sapiens, UniProt P51449)
inhibition at 10 µM [%]: 89.1
--
Smiles Input: CCn1c(C(C)(C)Oc2ccc(Cl)cc2)nc2cc(NC(=O)Cc3ccc(S(=O)(=O)CC)cc3)ccc21
Study System: GST-tagged ROR gamma ligand binding domain (LBD) (Homo sapiens, UniProt P51449)
inhibition at 10 µM [%]: 87.4
--
Smiles Input: CCS(=O)(=O)c1ccc(CC(=O)Nc2ccc(OC3(c4ccc(C(F)(F)F)c(F)c4)CCOCC3)cc2)cc1
Study System: GST-tagged ROR gamma ligand binding domain (LBD) (Homo sapiens, UniProt P51449)
inhibition at 10 µM [%]: 87.2
--
Smiles Input: CCS(=O)(=O)c1ccc(CC(=O)Nc2ccc(OC(C)(C)c3ccc(Cl)c(Cl)c3)cc2)cc1
Study System: GST-tagged ROR gamma ligand binding domain (LBD) (Homo sapiens, UniProt P51449)
inhibition at 10 µM [%]: 86.4
--
Smiles Input: CCS(=O)(=O)c1ccc(CC(=O)Nc2ccc(OC3(c4ccc(Cl)cc4Cl)CC3)c(F)c2)cc1
Study System: GST-tagged ROR gamma ligand binding domain (LBD) (Homo sapiens, UniProt P51449)
inhibition at 10 µM [%]: 83.6
--
Smiles Input: CCS(=O)(=O)c1ccc(CC(=O)Nc2ccc3c(c2)nc(C(C)(C)Oc2ccc(Cl)c(Cl)c2)n3C)cc1
Study System: GST-tagged ROR gamma ligand binding domain (LBD) (Homo sapiens, UniProt P51449)
inhibition at 10 µM [%]: 91.2
--
Smiles Input: CCS(=O)(=O)c1ccc(CC(=O)Nc2ccc(C#CC(C)(C)Oc3ccc(F)c(F)c3)cc2)cc1
Study System: GST-tagged ROR gamma ligand binding domain (LBD) (Homo sapiens, UniProt P51449)
inhibition at 10 µM [%]: 81.3
--
Smiles Input: CCS(=O)(=O)c1ccc(CC(=O)Nc2ccc(OC3(c4nnc5ccc(Cl)cn45)CCC3)cc2)cc1
Study System: GST-tagged ROR gamma ligand binding domain (LBD) (Homo sapiens, UniProt P51449)
inhibition at 10 µM [%]: 90
--
Smiles Input: CCS(=O)(=O)c1ccc(CC(=O)Nc2ccc(OC3(c4ccc(Cl)c(F)c4)CCCCC3)c(F)c2)cc1
Study System: GST-tagged ROR gamma ligand binding domain (LBD) (Homo sapiens, UniProt P51449)
inhibition at 10 µM [%]: 81.2
--
Smiles Input: CCS(=O)(=O)c1ccc(CC(=O)Nc2ccc(OC3(c4ccc(Cl)cc4Cl)CCC3)c(F)c2)cc1
Study System: GST-tagged ROR gamma ligand binding domain (LBD) (Homo sapiens, UniProt P51449)
inhibition at 10 µM [%]: 82.6
--
Smiles Input: CCS(=O)(=O)c1ccc(CC(=O)Nc2ccc(OC3(c4ccc(Cl)c(F)c4)CC3)nc2)cc1
Study System: GST-tagged ROR gamma ligand binding domain (LBD) (Homo sapiens, UniProt P51449)
inhibition at 10 µM [%]: 83.8
--
Smiles Input: CCS(=O)(=O)c1ccc(CC(=O)Nc2ccc(OC3(c4ccc(Cl)c(F)c4)CCOCC3)c(F)c2)cc1
Study System: GST-tagged ROR gamma ligand binding domain (LBD) (Homo sapiens, UniProt P51449)
inhibition at 10 µM [%]: 80.2
--
Smiles Input: CCS(=O)(=O)c1ccc(CC(=O)Nc2ccc(OC3(c4ccc(Cl)cc4Cl)COC3)cc2)cc1
Study System: GST-tagged ROR gamma ligand binding domain (LBD) (Homo sapiens, UniProt P51449)
inhibition at 10 µM [%]: 93.2
--
Smiles Input: CCS(=O)(=O)c1ccc(CC(=O)Nc2ccc3c(c2)nc(C(C)(C)Oc2ccc(F)cc2F)n3CCN(C)C)cc1
Study System: GST-tagged ROR gamma ligand binding domain (LBD) (Homo sapiens, UniProt P51449)
inhibition at 10 µM [%]: 52.4
--
Smiles Input: CCS(=O)(=O)c1ccc(CC(=O)Nc2ccc(OC(C)(C)c3ccc(Cl)c(F)c3)cc2)cc1
Study System: GST-tagged ROR gamma ligand binding domain (LBD) (Homo sapiens, UniProt P51449)
inhibition at 10 µM [%]: 85.1
--
Smiles Input: CCn1c(C(C)(C)Oc2ccc(F)cc2F)nc2cc(NC(=O)Cc3ccc(S(=O)(=O)CC)cc3)ccc21
Study System: GST-tagged ROR gamma ligand binding domain (LBD) (Homo sapiens, UniProt P51449)
inhibition at 10 µM [%]: 96.1
--
Smiles Input: CCS(=O)(=O)c1ccc(CC(=O)Nc2ccc(OC(C)(C)c3ccc(C(F)(F)F)c(F)c3)cc2)cc1
Study System: GST-tagged ROR gamma ligand binding domain (LBD) (Homo sapiens, UniProt P51449)
inhibition at 10 µM [%]: 81.5
--
Smiles Input: CCS(=O)(=O)c1ccc(CC(=O)Nc2ccc(C#CCOc3ccc(Cl)c(Cl)c3)cc2)cc1
Study System: GST-tagged ROR gamma ligand binding domain (LBD) (Homo sapiens, UniProt P51449)
inhibition at 10 µM [%]: 92.9
